Listed here: items and their measured CGRP t1/2.
target: CGRP receptor ectodomain complex (Homo sapiens (Human), UniProt O60894+Q16602); experiment: Receptor kinetic profiling by surface plasmon resonance (Biacore T200); settings: dissociation half-life, SPR, 25° C.
Measure: CGRP t1/2 (h)

INSERT INTO measurements (smiles_code, measurement_unit, result_number) VALUES
  ('Cc1cc(C[C@@H](NC(=O)N2CCC(c3cc4ccccc4[nH]c3=O)CC2)C(=O)N[C@@H](CC2CCN(C(=O)OC(C)(C)C)CC2)C(=O)N2CCN(c3ccncc3)CC2)cc2cn[nH]c12', 'h', 1.3),
  ('CCCN1CCC(C[C@H](NC(=O)[C@@H](Cc2cc(C)c3[nH]ncc3c2)NC(=O)N2CCC(c3cc4ccccc4[nH]c3=O)CC2)C(=O)N2CCN(c3ccncc3)CC2)CC1', 'h', 0.65),
  ('O=C(N[C@@H](CC1CCNCC1)C(=O)N1CCN(c2ccncc2)CC1)[C@@H](Cc1cc(Br)c(O)c(Br)c1)NC(=O)N1CCC(n2c(=O)[nH]c3ncccc32)CC1', 'h', 1.58);

###

target: Human CGRP receptors (consisting of CRLR and RAMP1) (Homo sapiens (Human), UniProt O60894+Q16602); assay: Radioligand binding assay (3H-telcagepant displacement); settings: Sf21 membranes, 0.5 nM 3H-telcagepant, Cheng-Prussoff
Sequence (Q16602 23-461): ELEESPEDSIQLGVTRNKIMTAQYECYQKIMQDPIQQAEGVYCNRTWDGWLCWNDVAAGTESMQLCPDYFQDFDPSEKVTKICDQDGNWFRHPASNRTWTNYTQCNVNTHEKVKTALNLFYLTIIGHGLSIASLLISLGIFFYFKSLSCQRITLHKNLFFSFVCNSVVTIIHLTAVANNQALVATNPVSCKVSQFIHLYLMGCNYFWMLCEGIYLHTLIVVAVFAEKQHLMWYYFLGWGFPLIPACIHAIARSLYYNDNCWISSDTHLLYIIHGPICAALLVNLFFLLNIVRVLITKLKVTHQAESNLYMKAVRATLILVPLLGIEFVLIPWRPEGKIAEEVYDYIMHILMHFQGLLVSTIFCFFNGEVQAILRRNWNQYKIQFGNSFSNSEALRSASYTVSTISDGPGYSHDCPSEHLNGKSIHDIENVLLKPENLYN
Sequence (O60894 27-148): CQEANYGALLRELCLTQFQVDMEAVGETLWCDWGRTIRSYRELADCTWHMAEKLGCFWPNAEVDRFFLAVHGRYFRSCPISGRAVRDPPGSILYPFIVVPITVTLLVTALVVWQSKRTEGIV
Counter-ions that a name gives are not always drawn.
Measure: pKi average

INSERT INTO assay_data (molecule, result_number) VALUES
  ('Cc1cc(C[C@@H](NC(=O)N2CCC(n3c(=O)[nH]c4ncccc43)CC2)C(=O)N[C@@H](CC2CCN(C(=O)CC(=O)O)CC2)C(=O)N2CCN(c3ccncc3)CC2)cc2cn[nH]c12 [Example 13, ammonium Salt]', 10.0),
  ('CCCN1CCC(C[C@H](NC(=O)[C@@H](Cc2cc(C)c3[nH]ncc3c2)NC(=O)N2CCC(c3cc4ccccc4[nH]c3=O)CC2)C(=O)N2CCN(c3ccncc3)CC2)CC1 [Example 4]', 10.4),
  ('O=C(N[C@@H](CC1CCNCC1)C(=O)N1CCN(c2ccncc2)CC1)[C@@H](Cc1cc(Br)c(O)c(Br)c1)NC(=O)N1CCC(c2cc3ccccc3[nH]c2=O)CC1 [Example 5]', 10.2),
  ('Cc1cc(C[C@@H](NC(=O)N2CCC(n3c(=O)[nH]c4ncccc43)CC2)C(=O)N[C@@H](CC2CCNCC2)C(=O)N2CCN(c3ccncc3)CC2)cc2cn[nH]c12 [Example 1]', 10.7),
  ('CCCCC(=O)N1CCC(C[C@H](NC(=O)[C@@H](Cc2cc(C)c3[nH]ncc3c2)NC(=O)N2CCC(c3cc4ccccc4[nH]c3=O)CC2)C(=O)N2CCN(c3ccncc3)CC2)CC1 [Example 6]', 10.0),
  ('Cc1cc(C[C@@H](NC(=O)N2CCC(N3Cc4ccccc4NC3=O)CC2)C(=O)N[C@@H](CC2CCNCC2)C(=O)N2CCN(c3ccncc3)CC2)cc2cn[nH]c12 [Example 10]', 10.2),
  ('O=C1Nc2ncccc2C2(CCN(C(=O)N[C@H](Cc3cc(Br)c(O)c(Br)c3)C(=O)N[C@@H](CC3CCNCC3)C(=O)N3CCN(c4ccncc4)CC3)CC2)O1 [Example 14]', 10.1),
  ('CCN1CCC(C[C@H](NC(=O)[C@@H](Cc2cc(C)c3[nH]ncc3c2)NC(=O)N2CCC(c3cc4ccccc4[nH]c3=O)CC2)C(=O)N2CCN(c3ccncc3)CC2)CC1 [Example 7]', 10.4),
  ('Cc1cc(C[C@@H](NC(=O)N2CCC(c3cc4ccccc4[nH]c3=O)CC2)C(=O)N[C@@H](CC2CCNCC2)C(=O)N2CCN(c3ccncc3)CC2)cc2cn[nH]c12 [Example 3]', 10.1),
  ('Cc1cc(C[C@@H](NC(=O)N2CCC(c3cc4ccccc4[nH]c3=O)CC2)C(=O)N[C@@H](CC2CCN(C(=O)OC(C)(C)C)CC2)C(=O)N2CCN(c3ccncc3)CC2)cc2cn[nH]c12 [Example 2]', 10.0);
